- tested_on: PRMT5/MEP50 protein complex (Homo sapiens (Human), UniProt O14744)
- Sequence (O14744 other isoform, or with tags, fused parts or gaps): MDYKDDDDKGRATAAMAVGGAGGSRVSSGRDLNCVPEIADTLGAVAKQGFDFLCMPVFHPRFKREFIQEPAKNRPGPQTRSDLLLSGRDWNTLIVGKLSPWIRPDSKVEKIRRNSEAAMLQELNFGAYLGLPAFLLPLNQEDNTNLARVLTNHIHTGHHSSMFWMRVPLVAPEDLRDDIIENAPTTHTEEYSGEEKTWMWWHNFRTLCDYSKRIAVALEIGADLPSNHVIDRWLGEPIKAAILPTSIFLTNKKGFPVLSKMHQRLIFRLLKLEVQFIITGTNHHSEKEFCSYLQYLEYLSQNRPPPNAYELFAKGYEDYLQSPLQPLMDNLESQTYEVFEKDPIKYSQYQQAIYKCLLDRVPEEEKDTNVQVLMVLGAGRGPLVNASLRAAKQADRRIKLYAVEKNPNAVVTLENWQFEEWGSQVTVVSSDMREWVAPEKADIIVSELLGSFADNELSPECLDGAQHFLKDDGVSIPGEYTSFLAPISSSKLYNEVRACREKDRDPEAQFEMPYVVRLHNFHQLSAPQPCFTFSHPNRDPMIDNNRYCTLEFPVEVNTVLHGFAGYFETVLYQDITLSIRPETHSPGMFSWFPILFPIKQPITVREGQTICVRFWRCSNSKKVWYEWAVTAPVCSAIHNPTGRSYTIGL
- Sequence (Q9BQA1 whole entry partner): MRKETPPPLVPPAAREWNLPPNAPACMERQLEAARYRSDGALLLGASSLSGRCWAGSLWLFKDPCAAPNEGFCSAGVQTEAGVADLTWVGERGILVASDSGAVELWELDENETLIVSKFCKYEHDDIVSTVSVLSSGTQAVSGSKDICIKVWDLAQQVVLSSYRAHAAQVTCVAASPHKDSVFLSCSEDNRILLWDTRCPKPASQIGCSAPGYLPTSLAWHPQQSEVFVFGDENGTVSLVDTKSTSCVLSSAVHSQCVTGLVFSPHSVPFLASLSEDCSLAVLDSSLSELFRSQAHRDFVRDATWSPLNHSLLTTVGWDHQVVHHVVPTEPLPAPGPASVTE
- test_name: PRMT5 biochemical assay (3H-SAM methylation of H4(1-21) peptide, filter plate scintillation)
- run_conditions: 10 nM PRMT5/MEP50 complex, 200 nM H4(1-21) peptide, 1 uM SAM, 25 minute incubation at room temperature
value_type: IC50 (nM)
One number for each entry, in nM.

# annotated cases, reported IC50 shown
- compound: "Cc1ncnc(N(C)[C@@H]2C[C@H]([C@H](O)c3ccc(F)c(F)c3)[C@@H](O)[C@H]2O)n1 [Example 46]"
  value_type: "IC50"
  value_reported: 297
- compound: "Cc1cc2c(c(O[C@H]3C[C@@H](n4cc(F)c5c(C)ncnc54)[C@H](O)[C@@H]3O)c1)CNCC2 [Example 124]"
  value_type: "IC50"
  value_reported: 2
- compound: "Cc1cc2c(c(O[C@H]3C[C@@H](n4cc(F)c5c(N)ncnc54)[C@H](O)[C@@H]3O)c1)CNCC2 [Example 105]"
  value_type: "IC50"
  value_reported: 1

Quick request: IC50 for each listed item, please.
1. Nc1ncnc2c1ccn2[C@@H]1C[C@H]([C@H](O)c2ccc(Cl)c(F)c2)[C@@H](O)[C@H]1O [Example 23]
2. Cc1cc2c(c(O[C@H]3C[C@@H](n4cc(C)c5c(N)ncnc54)[C@H](O)[C@@H]3O)c1)CNCC2 [Example 122]
3. Cc1ncnc2c1ccn2[C@@H]1C[C@H](Oc2cc(Cl)cc3c2CNCC3)[C@@H](O)[C@H]1O [Example 87]
4. CN(c1ncnc(N)n1)[C@@H]1C[C@H]([C@H](O)c2ccc(F)c(F)c2)[C@@H](O)[C@H]1O [Example 37]

1: 572; 2: 3; 3: 2; 4: 266
